Biological target: Serine/threonine-protein kinase Nek2 (Homo sapiens) (UniProt P51955)
Sequence (P51955 whole entry): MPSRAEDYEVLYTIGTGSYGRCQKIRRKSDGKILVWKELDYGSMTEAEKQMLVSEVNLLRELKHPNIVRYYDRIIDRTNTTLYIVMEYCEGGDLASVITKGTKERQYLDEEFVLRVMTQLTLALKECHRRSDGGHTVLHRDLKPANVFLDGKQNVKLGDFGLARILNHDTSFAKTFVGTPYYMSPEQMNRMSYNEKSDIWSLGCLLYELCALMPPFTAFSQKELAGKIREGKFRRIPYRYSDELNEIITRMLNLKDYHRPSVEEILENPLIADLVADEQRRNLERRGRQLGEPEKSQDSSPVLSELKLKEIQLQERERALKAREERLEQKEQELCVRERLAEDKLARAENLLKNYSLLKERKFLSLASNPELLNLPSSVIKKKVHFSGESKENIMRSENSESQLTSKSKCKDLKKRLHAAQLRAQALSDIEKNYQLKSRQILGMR
// classify: if (ΔTm < 1 °C) t else f

query: Dear colleague, could you confirm whether ΔTm of O=C(O)c1cc(N(Cc2ccccc2O)Cc2cc(O)ccc2O)ccc1O [LAVENDUSTIN A] falls below 1 °C? Thanks.
result: f

query: Repeat for the following molecule: "O=C1NC(=O)C(c2cn(CCCn3ccnc3)c3ccccc23)=C1Nc1ccccc1"
result: f

query: Would you kindly repeat that for "Oc1ccc(-c2nc(-c3ccc(F)cc3)c(-c3ccncc3)[nH]2)cc1" ?
result: t

query: Ok, now "C=CNC#N"
result: f

query: Now give it for "O=c1c(-c2ccc(F)cc2)c(-c2ccncc2)[nH]n1-c1ccc(Cl)cc1" too.
result: f

query: Cool, now CC(C)[C@H](CO)Nc1nc(Nc2cc(N)cc(Cl)c2)c2ncn(C(C)C)c2n1 [AMINOPURVALANOL]
result: f

query: Same thing, different molecule: "N#C/C(=C\c1ccc(O)c(O)c1)C(=O)NCc1ccccc1"
result: t

query: Moving on to "O=C1c2ccccc2-c2n[nH]c3cccc1c23"
result: f

query: Moving on to "O=c1cc(N2CCOCC2)oc2c(-c3ccccc3)cccc12"
result: f

query: Subsequent entry: "CCOC(=O)c1c(C)[nH]c(/C=C2\C(=O)Nc3ccccc32)c1C"
result: t

query: Same read-out for CN1CCC(Nc2ncc3ncnc(Nc4ccc(F)c(Cl)c4)c3n2)CC1 [FALNIDAMOL] ?
result: f

query: Can you handle C[S+]([O-])c1ccc(CSc2nc(-c3ccc(F)cc3)c(-c3ccncc3)[nH]2)cc1 (stereo unspecified) next?
result: t

query: Same thing, different molecule: NC1=N/C(=C2/CCNC(=O)c3[nH]ccc32)C(=O)N1 [DEBROMOHYMENIALDISINE]
result: f

query: # iterate: "Nc1cccc(-c2cc3c(Oc4cccc(O)c4)ncnc3[nH]2)c1"
result: f

query: Queued: "COc1cccc(-c2cc(=O)c3ccccc3o2)c1N"
result: t

query: // next record COc1cc2ncnc(Nc3ccc(NC(=O)c4ccccc4)cc3)c2cc1OC [ANILINOQUINAZOLINE1]
result: t

query: What do we get for "OC[C@H]1O[C@@H](n2cnc3cc(Cl)c(Cl)cc32)[C@H](O)[C@@H]1O" ?
result: t

query: Then this molecule: O=C(Nc1cccc(Nc2nccc(Nc3cccc(C(F)(F)F)c3)n2)c1)C1CC1 [ANILINOPYRIMIDINE1]
result: f

###

Observed ΔTm for Serine/threonine-protein kinase PLK1 (Homo sapiens) (UniProt P53350), reported per entry below.
Response body: numeric value in °C, unit text excluded.

query: Value wanted: ΔTm (Serine/threonine-protein kinase PLK1 (Homo sapiens) (UniProt P53350)) of entry "O=C1Cc2c([nH]c3ccc([N+](=O)[O-])cc23)-c2ccccc2N1"
result: 0.5

query: How about "Cn1cnc2c(NCc3ccccc3)nc(NCCO)nc21" ?
result: -0.9

query: Also C[S+]([O-])c1ccc(-c2nc(-c3ccc(F)cc3)c(-c3ccncc3)[nH]2)cc1 (stereo unspecified) , if possible.
result: 0.2

query: Try this molecule too: "O=C(O)c1cc(NCc2cc(O)ccc2O)ccc1O"
result: 0.3

query: Same again, this time with "Cc1cncc2cccc(S(=O)(=O)N3CCCNC[C@@H]3C)c12"
result: 0.7

query: Further, for "CN1CCc2[nH]c(=S)c(C#N)c(-c3cccs3)c2C1" ?
result: 2.4

###

Values of ΔTm reported for Serine/threonine-protein kinase PAK 6 (Homo sapiens) (UniProt Q9NQU5) appear below.
Respond with a number, then the unit of measure.

query: What measured ΔTm is associated with "COc1cc2ncnc(Nc3cccc(Br)c3)c2cc1OC" on Serine/threonine-protein kinase PAK 6 (Homo sapiens) (UniProt Q9NQU5)?
result: 0.1 °C

query: Can you handle "O=C1Nc2ccccc2/C1=C/c1cnc[nH]1" next?
result: 1.9 °C

query: Input CN(C)CC1CCn2c(c(C3=C(c4c[nH]c5ccccc45)C(=O)NC3=O)c3ccccc32)C1 (stereo not given)
result: 0.7 °C

query: Input "O=C1Nc2ccc(S(=O)(=O)O)cc2/C1=C1/Nc2ccccc2/C1=N\O"
result: 3.2 °C

query: Then what about the compound COc1cc(C[C@H]2C(=O)OC[C@@H]2Cc2ccc(OC)c(OC)c2)ccc1O [ARCTIGENIN] ?
result: 0.1 °C

query: Proceed to "C#Cc1cccc(Nc2ncnc3cc(OCCOC)c(OCCOC)cc23)c1"
result: -0.1 °C

query: Also "Clc1ccc(Nc2nnc(Cc3ccncc3)c3ccccc23)cc1" , if possible.
result: 0 °C

query: Would you kindly repeat that for "Nc1nc(Nc2ccc(S(N)(=O)=O)cc2)nn1C(=S)Nc1c(F)cccc1F" ?
result: 5.6 °C

query: Another: O=C1NC(=O)c2c1c1c3ccccc3[nH]c1n1cncc21 [ISOGRANULATIMIDE]
result: -0.5 °C

query: // repeat for C[S+]([O-])c1ccc(-c2nc(-c3ccc(F)cc3)c(-c3ccncc3)[nH]2)cc1 (stereo not given) [SB-203580] and report
result: 0 °C

###

Consider the following compounds; for each one, report its IC50.
Biological target: Serine-protein kinase ATM (Homo sapiens, UniProt Q13315)
Sequence (Q13315 whole entry): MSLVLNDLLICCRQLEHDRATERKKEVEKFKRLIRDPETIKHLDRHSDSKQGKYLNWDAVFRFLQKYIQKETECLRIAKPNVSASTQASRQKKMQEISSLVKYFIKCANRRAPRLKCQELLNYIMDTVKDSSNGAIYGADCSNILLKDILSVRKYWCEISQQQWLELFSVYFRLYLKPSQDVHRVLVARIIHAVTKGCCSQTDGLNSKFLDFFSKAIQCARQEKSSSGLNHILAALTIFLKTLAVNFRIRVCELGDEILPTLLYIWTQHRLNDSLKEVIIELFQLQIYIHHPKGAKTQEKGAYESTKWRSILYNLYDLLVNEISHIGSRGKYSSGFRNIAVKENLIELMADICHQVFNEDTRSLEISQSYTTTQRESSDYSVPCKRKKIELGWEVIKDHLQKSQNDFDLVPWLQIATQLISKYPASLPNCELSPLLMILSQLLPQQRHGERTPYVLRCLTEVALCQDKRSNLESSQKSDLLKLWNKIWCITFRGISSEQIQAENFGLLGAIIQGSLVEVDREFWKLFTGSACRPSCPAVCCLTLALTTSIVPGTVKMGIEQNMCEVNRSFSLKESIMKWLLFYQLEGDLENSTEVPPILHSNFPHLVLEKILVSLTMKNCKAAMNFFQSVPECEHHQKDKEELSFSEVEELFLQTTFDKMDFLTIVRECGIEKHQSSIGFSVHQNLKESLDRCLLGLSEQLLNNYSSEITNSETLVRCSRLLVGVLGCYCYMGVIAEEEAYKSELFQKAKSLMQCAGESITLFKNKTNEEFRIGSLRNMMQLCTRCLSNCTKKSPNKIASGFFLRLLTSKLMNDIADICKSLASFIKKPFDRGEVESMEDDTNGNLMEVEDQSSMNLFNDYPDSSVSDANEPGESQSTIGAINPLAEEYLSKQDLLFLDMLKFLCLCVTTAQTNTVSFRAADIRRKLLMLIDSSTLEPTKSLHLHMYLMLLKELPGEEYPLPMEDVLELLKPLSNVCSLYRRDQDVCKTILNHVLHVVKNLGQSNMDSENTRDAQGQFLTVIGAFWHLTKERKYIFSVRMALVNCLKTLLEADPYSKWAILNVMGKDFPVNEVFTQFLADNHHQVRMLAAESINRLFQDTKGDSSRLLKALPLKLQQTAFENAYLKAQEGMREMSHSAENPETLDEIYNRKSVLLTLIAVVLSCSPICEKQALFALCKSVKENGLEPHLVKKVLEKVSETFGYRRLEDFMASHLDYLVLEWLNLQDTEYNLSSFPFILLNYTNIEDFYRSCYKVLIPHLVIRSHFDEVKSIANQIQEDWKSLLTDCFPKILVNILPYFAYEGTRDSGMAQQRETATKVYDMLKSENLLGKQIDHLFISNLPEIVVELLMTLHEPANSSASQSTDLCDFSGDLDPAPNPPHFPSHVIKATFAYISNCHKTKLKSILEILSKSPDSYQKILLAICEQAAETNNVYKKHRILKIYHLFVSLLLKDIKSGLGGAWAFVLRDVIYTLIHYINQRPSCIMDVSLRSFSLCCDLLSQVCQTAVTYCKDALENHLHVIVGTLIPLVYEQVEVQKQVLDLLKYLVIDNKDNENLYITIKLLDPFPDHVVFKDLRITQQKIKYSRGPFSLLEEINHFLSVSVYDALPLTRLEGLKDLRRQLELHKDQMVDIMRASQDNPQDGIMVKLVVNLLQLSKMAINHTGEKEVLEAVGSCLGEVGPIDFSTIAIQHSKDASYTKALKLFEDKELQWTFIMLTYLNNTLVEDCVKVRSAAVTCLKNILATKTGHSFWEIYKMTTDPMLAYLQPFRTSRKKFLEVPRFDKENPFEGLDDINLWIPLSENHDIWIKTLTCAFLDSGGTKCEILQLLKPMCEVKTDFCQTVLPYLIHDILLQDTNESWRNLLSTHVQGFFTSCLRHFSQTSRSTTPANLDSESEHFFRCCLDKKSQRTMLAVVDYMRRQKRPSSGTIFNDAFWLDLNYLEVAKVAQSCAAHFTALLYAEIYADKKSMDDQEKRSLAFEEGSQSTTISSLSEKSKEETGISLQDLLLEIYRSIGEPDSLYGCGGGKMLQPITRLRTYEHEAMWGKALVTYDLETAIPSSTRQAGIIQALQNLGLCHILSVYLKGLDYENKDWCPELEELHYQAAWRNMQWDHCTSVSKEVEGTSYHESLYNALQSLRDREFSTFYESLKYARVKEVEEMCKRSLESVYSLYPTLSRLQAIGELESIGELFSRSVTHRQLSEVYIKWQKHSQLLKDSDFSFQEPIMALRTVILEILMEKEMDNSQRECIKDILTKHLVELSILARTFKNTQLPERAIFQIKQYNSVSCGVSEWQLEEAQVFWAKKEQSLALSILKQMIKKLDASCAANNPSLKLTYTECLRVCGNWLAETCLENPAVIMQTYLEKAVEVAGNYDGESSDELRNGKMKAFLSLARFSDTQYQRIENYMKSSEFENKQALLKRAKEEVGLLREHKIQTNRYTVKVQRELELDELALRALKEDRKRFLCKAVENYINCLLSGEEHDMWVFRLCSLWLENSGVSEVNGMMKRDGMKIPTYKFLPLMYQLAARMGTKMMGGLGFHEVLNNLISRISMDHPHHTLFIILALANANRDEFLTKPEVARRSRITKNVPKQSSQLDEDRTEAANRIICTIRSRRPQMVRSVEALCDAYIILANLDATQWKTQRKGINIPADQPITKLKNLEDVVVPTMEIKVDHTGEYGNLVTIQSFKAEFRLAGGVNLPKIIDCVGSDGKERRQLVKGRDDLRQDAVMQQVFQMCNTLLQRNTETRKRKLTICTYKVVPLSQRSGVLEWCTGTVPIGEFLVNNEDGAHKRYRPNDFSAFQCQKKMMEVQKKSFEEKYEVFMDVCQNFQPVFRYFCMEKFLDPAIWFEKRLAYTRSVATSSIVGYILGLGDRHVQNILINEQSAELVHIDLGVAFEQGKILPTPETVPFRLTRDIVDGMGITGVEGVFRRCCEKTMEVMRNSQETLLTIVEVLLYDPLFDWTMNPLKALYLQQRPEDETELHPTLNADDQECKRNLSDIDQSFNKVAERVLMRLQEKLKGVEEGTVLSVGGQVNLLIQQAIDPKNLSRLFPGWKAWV

query: Can you look up the measured IC50 of "O=c1cc(N2CCOCC2)oc2c1ccc1ccccc12" for me?
result: > 100000 nM

query: What about "NC(N)=S" ?
result: 200 nM

###

Molecular target: Dual specificity protein kinase CLK1 (Homo sapiens) (UniProt P49759)
Sequence (P49759 whole entry, looked up): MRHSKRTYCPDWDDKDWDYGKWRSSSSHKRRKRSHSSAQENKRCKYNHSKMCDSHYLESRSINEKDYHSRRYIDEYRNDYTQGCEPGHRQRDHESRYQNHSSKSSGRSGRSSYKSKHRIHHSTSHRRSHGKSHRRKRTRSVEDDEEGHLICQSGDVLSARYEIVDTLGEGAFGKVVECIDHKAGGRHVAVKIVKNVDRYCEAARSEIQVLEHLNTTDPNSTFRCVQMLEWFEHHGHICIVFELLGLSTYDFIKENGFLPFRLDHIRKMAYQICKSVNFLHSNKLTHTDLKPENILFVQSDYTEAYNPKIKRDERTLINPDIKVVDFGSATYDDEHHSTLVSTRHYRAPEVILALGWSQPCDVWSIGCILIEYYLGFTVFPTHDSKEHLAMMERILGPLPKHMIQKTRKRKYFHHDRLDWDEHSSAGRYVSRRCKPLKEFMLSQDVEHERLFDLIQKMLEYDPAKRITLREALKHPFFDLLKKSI
Parameter Measured: ΔTm
Phrase the answer as number then unit, nothing more needed.

query: Looking for the measured ΔTm of "CC[C@H](CO)Nc1nc(NCc2ccccc2)c2ncn(C(C)C)c2n1" , can you help?
result: 2.1 °C

query: "O=C1NC(=O)C(c2c[nH]c3ccccc23)=C1c1c[nH]c2ccccc12" ?
result: 4.1 °C

query: Consider next the compound "O=[N+]([O-])c1ccc(-c2nc(-c3ccc(F)cc3)c(-c3ccncc3)[nH]2)cc1" in the same way.
result: -1.2 °C

query: What about this compound? "O=C1NC(=O)c2c1c1c3ccccc3n3c1c1c2c2ccccc2n1C1CCC3O1"
result: 3.3 °C

query: And then "Cc1ccc(NC(=O)c2cccc(N(C)C)c2)cc1NC(=O)c1ccc(O)cc1" , what is it?
result: -0.2 °C

query: What do you have for "C/C(O)=C(\C#N)C(=O)Nc1cc(Br)ccc1Br" ?
result: 0.5 °C

query: What would you report for "Nc1cc2ncnc(Nc3cccc(Br)c3)c2cc1N" ?
result: 2.2 °C

query: Try the compound COC(=O)[C@]1(O)C[C@@H]2O[C@@]1(C)n1c3ccccc3c3c4c(c5c6ccccc6n2c5c31)C(=O)NC4 (single isomer, unassigned)
result: 10.6 °C

query: Now consider "CC(C)(C)c1cc(C=C2C(=O)C=CC2=O)cc(C(C)(C)C)c1O" .
result: 0 °C

query: One more compound: "N#C/C(=C\c1ccc(O)c(O)c1)C(=O)NCc1ccccc1"
result: 1 °C

###

Molecular target: Serine/threonine-protein kinase PAK 6 (Homo sapiens)
Cut-off 0 °C on ΔTm, inclusive. At or above means met; below means not met.

query: Quick check: does "CC(C)(C)n1nc(-c2ccc(Cl)cc2)c2c(N)ncnc21" have ΔTm greater than or equal to 0 °C?
result: not met

query: Moving on to the next compound: "O=C1Nc2ccc(I)cc2/C1=C1/Nc2ccccc2/C1=N\O"
result: met

query: Continue with "Brc1c(Br)c(Br)c2[nH]nnc2c1Br"
result: not met

query: // same read-out, input: COC(=O)[C@]1(O)C[C@@H]2O[C@@]1(C)n1c3ccccc3c3c4c(c5c6ccccc6n2c5c31)C(=O)NC4 (single isomer, unassigned)
result: met

query: What do you have for "Cc1c2ccncc2c(C)c2c1[nH]c1ccccc12" ?
result: not met

query: Lookup "Nc1cccc(-c2cc3c(Oc4cccc(O)c4)ncnc3[nH]2)c1"
result: met

query: Try "NS(=O)(=O)c1ccc(Nc2nc(OCC3CCCCC3)c3nc[nH]c3n2)cc1" next.
result: met

query: Consider next the compound "Cc1ccc(NC(=O)c2ccc(CN3CCN(C)CC3)cc2)cc1Nc1nccc(-c2cccnc2)n1" in the same way.
result: met

###

Dual specificity mitogen-activated protein kinase kinase 6 (Homo sapiens) (UniProt P52564) data, read-out ΔTm
Sequence (P52564 whole entry): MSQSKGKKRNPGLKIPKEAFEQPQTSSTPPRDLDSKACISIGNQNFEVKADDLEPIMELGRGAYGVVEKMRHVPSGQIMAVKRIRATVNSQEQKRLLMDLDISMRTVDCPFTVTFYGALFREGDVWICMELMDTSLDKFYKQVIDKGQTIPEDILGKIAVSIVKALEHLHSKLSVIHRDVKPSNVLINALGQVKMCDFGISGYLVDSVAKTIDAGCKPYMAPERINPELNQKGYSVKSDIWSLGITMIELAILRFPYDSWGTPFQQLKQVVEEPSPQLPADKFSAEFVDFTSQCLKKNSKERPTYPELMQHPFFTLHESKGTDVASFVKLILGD
Give just the numeric value; °C need not be written.

query: Please look up its ΔTm: "Cc1ccc(NC(=O)c2cccc(N(C)C)c2)cc1NC(=O)c1ccc(O)cc1"
result: 0

query: Moving on to the next compound: "NC(=O)c1ccc2[nH]c(-c3ccc(Oc4ccc(Cl)cc4)cc3)nc2c1"
result: 0.4

query: What do you get for "CCN1/C(=C/C(C)=O)Sc2ccc(OC)cc21" ?
result: 0.3

query: Likewise for "O=S(=O)(c1cccc2c(Cl)cccc12)N1CCCNCC1" ?
result: 0

query: Please do the same for "CN1CCc2[nH]c(=S)c(C#N)c(-c3cccs3)c2C1" as well.
result: -0.2

query: // query: "O=C(O)Cc1ccc(O)c([N+](=O)[O-])c1"
result: 0

query: Likewise for CCCNC(=O)Nc1ccc(Oc2ncnc3cc(OC)c(OC)cc23)cc1Cl [KRN-633] ?
result: 0

query: Now this one: CCCCc1c(-c2ccc(O)cc2)[nH]c2nccnc12 [ALOISINE A]
result: 0.7

query: And what about the compound C[C@@H]1C[C@H]2O[C@@H]2/C=C\C=C\C(=O)Cc2c(Cl)c(O)cc(O)c2C(=O)O1 [RADICICOL] ?
result: 0

query: Now the same for CN1CCC(Nc2ncc3ncnc(Nc4ccc(F)c(Cl)c4)c3n2)CC1 [FALNIDAMOL]
result: 0.3

query: Entry to check: "Nc1ncnc2c1c(I)cn2[C@@H]1O[C@H](CO)[C@@H](O)[C@H]1O"
result: 2.7

query: Another: CCN(CC)CCNC(=O)c1c(C)[nH]c(/C=C2\C(=O)Nc3ccc(Cl)cc32)c1C [SU-11652]
result: 2.4

query: Please give the result for "O=C1Cc2c([nH]c3ccc([N+](=O)[O-])cc23)-c2ccccc2N1" too.
result: 1.2

query: Same question for "O=C(O)c1cc(NCc2cc(O)ccc2O)ccc1O" please.
result: -0.2

query: Again, but for "NC(=O)c1ccc(-c2nc(-c3ccc4c(c3)OCCO4)c(-c3ccccn3)[nH]2)cc1"
result: 0.3

query: How about "COc1cc2ncnc(Nc3cccc(Br)c3)c2cc1OC" ?
result: 0.4

query: Then "c1ccc(-c2n[nH]c3c2oc2ccccc23)cc1" ?
result: 1

query: Thanks! And "Cc1nc2sccn2c(=O)c1CCN1CCC(=C(c2ccccc2)c2ccc(F)cc2)CC1" ?
result: 0.5

query: Do the same for C[S+]([O-])c1ccc(CSc2nc(-c3ccc(F)cc3)c(-c3ccncc3)[nH]2)cc1 (configuration not stated) please
result: 0.1

query: Same again, this time with "C=CNC#N"
result: 0.3

query: # iterate: "O=C1NC(=O)C(c2cn(CCCn3ccnc3)c3ccccc23)=C1Nc1ccccc1"
result: 0.9

query: Next up: "CCN(CC)CCNC(=O)c1c(C)[nH]c(/C=C2\C(=O)Nc3ccc(F)cc32)c1C"
result: 3.9

Measured values drawn from ChEMBL document CHEMBL1145498 for this set.
